- System: OVCAR-8 ovarian
- ASSAY EXPLANATION: NCI-60 one-dose screen, 48 h
- STATED CONDITIONS: 10 µM unless noted
Compounds without any hit were thinned out: in the full panel of roughly 83,000, 20% have a hit. Calls of active or inactive are those of the source. How the source made its calls: active means growth percent below 10; inactive means the rest.
Labels: active, inactive

>  <MOLECULE>
O=C(CSc1nnc(-c2ccc(-c3nc4ccc(Cl)cc4[nH]3)cc2)o1)Nc1ccc(Br)cc1

>  <GROUP>
active

$$$$
>  <MOLECULE>
COc1ccc(SC2c3cc(OC)ccc3Oc3nc(N)c(C#N)c(N)c32)cc1 (stereo not given)

>  <GROUP>
inactive

$$$$
>  <MOLECULE>
COc1ccc(N=Nc2c(N)nn3c(-c4ccc5c(c4)C=S=C5)ccnc23)cc1

>  <GROUP>
inactive

$$$$
>  <MOLECULE>
O=C(Nc1ccc(F)cc1)Nc1nc2ccc([N+](=O)[O-])cc2s1

>  <GROUP>
inactive

$$$$
>  <MOLECULE>
CC(C)(C)C(=O)c1c2c(c3ccc4c5ccccc5ccc4n13)C(=O)c1ccccc1C2=O

>  <GROUP>
inactive

$$$$
>  <MOLECULE>
C=CCSc1nnc(-c2c(C)nc3sccn23)o1

>  <GROUP>
inactive

$$$$
>  <MOLECULE>
O=C(Cn1c(-c2ccccc2)nc2ccccc21)N=Nc1c(O)[nH]c2ccc(Cl)cc12

>  <GROUP>
active

$$$$
>  <MOLECULE>
COC(=O)c1cc(C(=O)CBr)n2c1ccc1c3ccccc3ccc12

>  <GROUP>
inactive

$$$$
>  <MOLECULE>
Cn1cc(-c2cc(N)n3nc(-c4c[nH]c5ccc(F)cc45)cc3n2)c2cccnc21

>  <GROUP>
active

$$$$
>  <MOLECULE>
Cc1ccc(C(=O)Nc2cc(-n3cnc(F)c3)cc(C(F)(F)F)c2)cc1C#Cc1cnc2cccnn12

>  <GROUP>
inactive

$$$$
>  <MOLECULE>
O=C(N/N=C/c1ccc(Br)o1)c1[nH]c2ccc(Br)cc2c1-c1ccccc1

>  <GROUP>
active

$$$$
>  <MOLECULE>
CS(=O)(=O)Nc1cc(-c2ccc3ncnc(N4CCc5cc(F)c(Cl)cc54)c3c2)cnc1Cl

>  <GROUP>
inactive

$$$$
>  <MOLECULE>
COc1c(B(O)O)cccc1-c1nc2ccc3cn[nH]c3c2c2c1CCCC2

>  <GROUP>
inactive

$$$$
>  <MOLECULE>
COc1ccc2c(c1)C(Sc1ccc(Cl)cc1)c1c(nc(N)c(C#N)c1N)O2 (stereo not given)

>  <GROUP>
inactive

$$$$
>  <MOLECULE>
Clc1ccc(-c2nc3c4c(-c5ccccc5)c(-c5ccccc5)n(Cc5ccccc5)c4ncn3n2)cc1

>  <GROUP>
inactive

$$$$
>  <MOLECULE>
O=C1CC(c2ccc(I)cc2)OC2C=Cc3ccccc3C12 (stereo not given)

>  <GROUP>
inactive

$$$$
>  <MOLECULE>
N/C(=N\c1nc2ccccc2s1)NC(=O)Nc1ccccc1F

>  <GROUP>
inactive

$$$$
>  <MOLECULE>
CCOC(=O)c1ccc(NC(=S)NC(=O)c2cccc(NC(=O)c3ccc(C)cc3)c2)cc1

>  <GROUP>
inactive

$$$$
>  <MOLECULE>
CN(C(=O)CN1C(=O)/C(=C/c2ccco2)SC1=S)C1CCS(=O)(=O)C1 (stereo not given)

>  <GROUP>
inactive

$$$$
>  <MOLECULE>
O=C(Nc1nc2ccccc2s1)Nc1ccccc1Cl

>  <GROUP>
inactive

$$$$
>  <MOLECULE>
COc1c2c(c(Br)c3c1C(CCc1ccccc1)N(C)CC3)OCO2 (stereo not given)

>  <GROUP>
inactive

$$$$
>  <MOLECULE>
O=C1Nc2ccccc2/C1=C\c1ccc(OCC(=O)c2ccc(Br)cc2)cc1

>  <GROUP>
inactive

$$$$
>  <MOLECULE>
C#CCN(C)CCCOc1ccc(N(CC)C(=O)c2cc(C(C)C)c(O)cc2O)cc1Cl

>  <GROUP>
active

$$$$
>  <MOLECULE>
CC1CCc2c(sc3nc(SCC(=O)c4cccc(Br)c4)n(-c4ccccc4)c(=O)c23)C1 (stereo not given)

>  <GROUP>
inactive

$$$$
>  <MOLECULE>
COc1ccc(-c2nc3ccccc3n2CC(=O)N=Nc2c(O)[nH]c3ccc(OC)cc23)cc1

>  <GROUP>
active

$$$$
